- test protocol: NCI Yeast Anticancer Drug Screen. Data for the wt2 strain (AID 169)
- measurement conditions: S. cerevisiae wt2 strain growth inhibition; at 100.0 µM
- Method: Growth inhibition of yeast strains with defined genetic alterations is measured as a screen for potential anti-cancer activity. Selected strains with alterations in DNA damage repair or cell cycle control were exposed to compounds and growth inhibition was measured relative to vehicle treated controls. The strain used in this assay is wt2
Compounds without any hit were thinned out: in the full panel of roughly 79,000, 15% have a hit. Activity calls are given as the source filed them. Cut-off read from the data, not from the text of the source: active = growth inhibition above about 70%; inactive = the rest.
Possible outcomes: yes (1) for active, no (0) for inactive

| compound | class |
| --- | --- |
| ClCCn1c(CCl)nc2ccc(Cl)cc21 | yes (1) |
| CN(C)c1ccc(N=Nc2ccccn2)cc1 | yes (1) |
| O=C(CNS(=O)(=O)Cc1ccccc1)NNc1ccccc1 | no (0) |
| COc1cc(/C=C/c2sc3ccccc3[n+]2C)ccc1N(C)C | yes (1) |
| COc1ccc2c(c1)[nH]c1c(/C=C/c3ccccc3)nccc12 | yes (1) |
| CC(C)c1[nH]nc(C(N)=O)c1N=NN(C)C | no (0) |
| CCc1nc(N)nc(N)c1-c1ccc(NCCCCCCN)c([N+](=O)[O-])c1 | no (0) |
| Cc1c2cc[n+](CCN3CCCCC3)cc2c(C)c2c1[nH]c1ccc(O)cc12 | yes (1) |
| CCOP1(=O)C=C(Sc2ccc([N+](=O)[O-])cc2[N+](=O)[O-])C(C)(C)O1 (stereo not given) | yes (1) |
| O=C(CCc1ccccc1)ON1C(=S)C(c2ccccc2)(c2ccccc2)N=C1Sc1ccccc1 | no (0) |
| Oc1ccccc1N=Cc1ccc(Cl)cc1 | no (0) |
| C(=N/NC1=NCCN1)/c1c2ccccc2c(/C=N\NC2=NCCN2)c2ccccc12 | yes (1) |
| CCCCCCCCCCCCCCCCNC(=O)/C(=C\c1ccc(Cl)c(Cl)c1)NC(=O)c1ccccc1 | no (0) |
| CO[C@@]12[C@H](COC(N)=O)C3=C(C(=O)C(C)=C(N)C3=O)N1C[C@@H]1N[C@@H]12 | yes (1) |
| CC1C(C#N)(C#N)C(C#N)=C(N)C1(Cl)[N+](=O)[O-] (stereo not given) | yes (1) |
| Cc1cc(O)c2c(c1)C(=O)C=C(Br)C2=O | yes (1) |
| C=C(CCCO)[C@@H]1CC[C@@](C)(O)[C@H]1C | no (0) |
| NCc1c(O)ccc2ccccc12 | yes (1) |
| CC(=O)CC(=O)/C=C/c1cccs1 | yes (1) |
| NC(N)=N/N=C/c1cc(Cl)cc(Cl)c1O | yes (1) |
| Clc1cc(Cc2ccc(N=C/C=C/c3ccccc3)c(Cl)c2)ccc1N=C/C=C\c1ccccc1 | no (0) |
| O=[N+]([O-])/C(C(Cl)=C(Cl)Cl)=C1/OCCS1 | yes (1) |
| NC(=O)N1c2ccccc2C=Cc2ccccc21 | no (0) |
| CN(Cc1cnc2nc(N)nc(N)c2n1)c1ccc(C(=O)NC(CCC(=O)O)C(=O)O)c2ccccc12 (stereo not given) | yes (1) |
| O=C1C=CC(=O)N1c1ccc(N2C(=O)C=CC2=O)cc1 | yes (1) |
| Cc1cccc(/C=N\NC(=S)N2CCCCC2)n1 | yes (1) |
| CN(C)Cc1cccc(CN(C)C)[c]1[Sn]([Br])([c]1ccccc1)[c]1ccccc1 | yes (1) |
| COc1ccc(N2CN(C)CSC2=S)cc1 | no (0) |
| CCn1ncc(N=O)c1N | no (0) |
| CC1=CCC(C(C)(C)c2ccc(O)cc2)CC1 (stereo not given) | yes (1) |
| CCN(CC)CCNC(=O)c1nn(-c2ccc(Cl)cc2)c2c1CCc1cc(OC)ccc1-2 | yes (1) |
| O=S(=O)(c1cc(Cl)ccc1O)c1cc(Cl)ccc1O | yes (1) |
| Cc1ccc(N=Nc2ccc(O)c(C)c2)cc1 | yes (1) |
| Cc1onc(-c2ccccc2Cl)c1C1=N/C(=C/c2cc(Cl)cc(Cl)c2O)C(=O)O1 | no (0) |
| COc1cc(N(C)C)ccc1/C=C\c1ccnc2ccccc12 | no (0) |
